Target or system: T1, SARS-CoV-2 S1 (aa16-685) (Wuhan) (SARS-CoV-2 Wuhan, UniProt P0DTC2 16-685)
T1 construct: NRC; FLAG, 6xHis tags
Experiment summary: SPR, antigen on chip
Property measured: log10 of kon (log10 of the value in M⁻¹ s⁻¹)

# Binder, log10 of kon
measured = [
    ("NRCoV2-SR02 VHH (VHH) VHH: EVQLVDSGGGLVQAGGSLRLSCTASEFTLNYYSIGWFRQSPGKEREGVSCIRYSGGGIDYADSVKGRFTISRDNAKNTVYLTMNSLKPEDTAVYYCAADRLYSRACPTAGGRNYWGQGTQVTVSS", 6.02),
    ("NRCoV2-06 VHH (VHH) VHH: EVQLVQSGGGLVQAGESLRLSCAASVSTFSSYAMGWYRQAPGKQRELVASIGFVGATYYIDSVKGRFTISRDNAKKTAYLQMNDLKPDDTAVYYCNARHYGGSEYWGQGTQVTVSS", 5.02),
    ("NRCoV2-14 VHH (VHH) VHH: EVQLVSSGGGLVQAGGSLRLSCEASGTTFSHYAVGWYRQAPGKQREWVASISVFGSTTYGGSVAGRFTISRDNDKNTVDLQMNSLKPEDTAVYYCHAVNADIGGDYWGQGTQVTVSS", 5.50),
    ("NRCoV2-15 VHH (VHH) VHH: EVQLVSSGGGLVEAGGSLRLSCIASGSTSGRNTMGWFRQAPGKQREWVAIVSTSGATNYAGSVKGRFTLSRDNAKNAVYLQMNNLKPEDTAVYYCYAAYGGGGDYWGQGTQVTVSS", 5.83),
    ("NRCoV2-SR13 VHH (VHH) VHH: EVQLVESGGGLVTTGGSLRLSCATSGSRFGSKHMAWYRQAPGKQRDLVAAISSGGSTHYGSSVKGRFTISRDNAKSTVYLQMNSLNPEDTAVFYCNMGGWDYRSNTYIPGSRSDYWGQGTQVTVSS", 6.35),
    ("NRCoV2-17 VHH (VHH) VHH: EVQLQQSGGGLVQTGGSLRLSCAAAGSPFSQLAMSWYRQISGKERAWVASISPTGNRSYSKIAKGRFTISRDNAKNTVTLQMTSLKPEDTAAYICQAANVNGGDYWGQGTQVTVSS", 5.80),
    ("NRCoV2-SR01 VHH (VHH) VHH: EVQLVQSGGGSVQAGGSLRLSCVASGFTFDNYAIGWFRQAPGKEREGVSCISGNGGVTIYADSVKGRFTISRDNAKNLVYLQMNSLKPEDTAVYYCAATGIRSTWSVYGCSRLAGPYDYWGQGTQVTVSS", 6.56),
    ("NRCoV2-02 VHH (VHH) VHH: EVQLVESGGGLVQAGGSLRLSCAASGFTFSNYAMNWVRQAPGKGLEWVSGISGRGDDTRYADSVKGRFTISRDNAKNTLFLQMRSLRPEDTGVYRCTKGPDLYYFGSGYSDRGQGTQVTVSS", 6.32),
    ("NRCoV2-SR04 VHH (VHH) VHH: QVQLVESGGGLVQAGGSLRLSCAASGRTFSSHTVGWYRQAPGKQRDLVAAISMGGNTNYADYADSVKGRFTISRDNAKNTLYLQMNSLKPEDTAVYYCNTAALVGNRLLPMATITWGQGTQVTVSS", 6.34),
    ("NRCoV2-SR03 VHH (VHH) VHH: AVQLVDSGGGLVQAGGSLRLSCAASGSIFSNNHMGWYRQAPGKQRELVAAISSGGKTNYADFAKGRFTISRDNAKNMVYLQMNSLKPEDTAVYYCNRGGWEYRSSYYIMGPHWGQGTQVTVSS", 5.96),
    ("NRCoV2-10 VHH (VHH) VHH: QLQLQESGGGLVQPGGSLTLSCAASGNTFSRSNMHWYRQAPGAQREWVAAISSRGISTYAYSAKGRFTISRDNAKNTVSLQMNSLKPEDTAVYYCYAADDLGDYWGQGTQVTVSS", 5.65),
    ("NRCoV2-07 VHH (VHH) VHH: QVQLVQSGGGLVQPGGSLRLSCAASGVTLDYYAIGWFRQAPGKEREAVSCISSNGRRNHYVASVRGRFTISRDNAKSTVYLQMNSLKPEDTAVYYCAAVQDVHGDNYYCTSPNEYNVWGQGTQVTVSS", 5.48),
    ("NRCoV2-SR16 VHH (VHH) VHH: QVQLVQSAGGLVQAGGSLRLSCVVSGTTFSRYHMGWHRQAPGKQRDFVAGISTSGAVTYADSAKGRFTISRDNAKNTVYLEMNSLKLEDTALYYCNTGGWDYRSSTFIMGLNWGQGTQVTVSS", 5.87),
    ("NRCoV2-18 VHH (VHH) VHH: EVQLVESGGGLVQAGGSLRLSCVASGITISGYNMAWWRQTRGKQTERVAFINSGGSTTYSDSVKGRFTISRDNGKNTAYLQMNSLNAEDTADYFCSLHTSHDYWGQGTQVTVSS", 5.49),
    ("NRCoV2-1d VHH (VHH) VHH: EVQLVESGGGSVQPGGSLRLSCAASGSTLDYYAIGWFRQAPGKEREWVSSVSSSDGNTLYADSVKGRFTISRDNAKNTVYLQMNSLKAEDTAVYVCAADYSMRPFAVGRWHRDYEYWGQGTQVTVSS", 5.94),
]
